Measured growth of individual entries
Test system: UACC-257 melanoma
PROTOCOL DESCRIPTION: NCI-60 one-dose screen, 48 h (100 = growth as untreated, 0 = no growth, -100 = all killed)
RECORDED CONDITIONS: 10 µM unless noted
Compounds without any hit were thinned out: in the full panel of roughly 83,000, 20% have a hit.
Answer format: numeric, % implied, no suffix.

Some compounds with known growth results, for comparison:
COMPOUND	growth / %
CCCCC(CCc1ccccn1)C(=O)c1ccccc1 (stereo not drawn)	123
CC(C)NCCCCCNc1cc(O)cc2cccnc12	111
Cc1nc2n[nH]c(N)c2nc1C	96.8
CC(=O)c1ccc(-n2c(-c3cc(-c4ccsc4)n[nH]3)n[nH]c2=S)cc1	101

Moving on to another compound below.
Q: Request - read-out growth | tested on UACC-257 melanoma | compound COc1cc(C2=NOC(c3cc(OC)c(OC)c(OC)c3)C2)ccc1OCCCCOc1cc2c(cc1OC)C(=O)N1CCC[C@H]1C=N2 (stereo partly drawn)
Ans: 13.7
